// provenance: ChEMBL document CHEMBL4837240

TARGET_UNDER_TEST: Tyrosine-protein kinase BTK (Homo sapiens, UniProt Q06187)
Sequence (Q06187 whole entry): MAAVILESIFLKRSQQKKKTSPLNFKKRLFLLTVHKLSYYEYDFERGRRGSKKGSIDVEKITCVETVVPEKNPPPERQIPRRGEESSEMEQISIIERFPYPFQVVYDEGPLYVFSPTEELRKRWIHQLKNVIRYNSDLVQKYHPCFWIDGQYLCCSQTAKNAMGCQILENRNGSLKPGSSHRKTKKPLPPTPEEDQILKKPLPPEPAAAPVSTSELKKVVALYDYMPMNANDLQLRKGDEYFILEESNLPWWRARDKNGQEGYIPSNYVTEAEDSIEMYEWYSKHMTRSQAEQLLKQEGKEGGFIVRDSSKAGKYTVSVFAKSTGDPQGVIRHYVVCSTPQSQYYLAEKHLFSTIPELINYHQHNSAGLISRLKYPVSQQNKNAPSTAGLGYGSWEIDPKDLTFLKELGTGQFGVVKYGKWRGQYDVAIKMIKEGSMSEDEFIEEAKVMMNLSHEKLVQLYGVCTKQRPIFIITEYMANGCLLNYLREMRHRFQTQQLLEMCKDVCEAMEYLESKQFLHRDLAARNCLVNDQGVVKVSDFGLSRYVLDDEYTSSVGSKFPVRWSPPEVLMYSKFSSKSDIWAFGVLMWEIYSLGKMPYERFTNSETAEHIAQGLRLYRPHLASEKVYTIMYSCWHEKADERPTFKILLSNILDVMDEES
MEASURED_PROPERTY: IC50 (nM)
Please respond with the number in nM and leave the unit unwritten.

Complete the entry with IC50 for `CN1CCN(c2ccc(-c3cc4c(N5CCN(C(=O)Nc6ccc(Cl)c(C(F)(F)F)c6)CC5)ncnc4s3)cc2)CC1`
718

---

ASSAY_DETAILS: AUC (0 to infinity) in Sprague-Dawley rat at 1 mg/kg, iv by LC-MS analysis
Format: ADME, organism-based
Set-up: time infinity, route intravenous, dose 1 mg/kg
CONDITION_PARAMETERS: in vivo
MEASURED_PROPERTY: AUC(0-inf)
# answer = value followed by unit

Complete the entry with AUC(0-inf) for `CN1CCN(c2ccc(-c3cc4c(N5CCN(C(=O)Nc6ccc(Cl)c(C(F)(F)F)c6)CC5)ncnc4s3)cc2)CC1`
3480 ng·h/mL
